experiment: Oral bioavailability in mongrel dog at 3 mg/kg; format: ADME, organism-based, Canis lupus familiaris; settings: in vivo
Property Label: bioavailability (%)

compound=C[C@@H](NC(=O)C1(O)CCC(F)(F)CC1)c1ncc(-c2cc(Cl)cc(F)c2-c2nnn(C)n2)cc1F recorded_value=91
compound="CC(NC(=O)C1(O)CCC(F)(F)C1)c1ncc(-c2cc(Cl)cc(F)c2-c2nnn(C)n2)cc1F (stereo in doubt; 11g)" recorded_value=85

====

assay: Ratio of permeability from basolateral to apical side to apical to basolateral side in pig L-MDR1 cells overexpressing human MDR1 at 5 uM after 3 hrs by LC/MS/MS analysis; format: ADME, cell-based, Sus scrofa; settings: l-mdr1, 3 h
Property Label: Ratio

Some solved entries appear below for comparison.
compound="C[C@@H](NC(=O)C1(O)CCC(=O)C1)c1ncc(-c2cc(Cl)cc(F)c2-c2nnn(C)n2)cc1F (some centres not stated)" recorded_value=16
compound="C[C@@H](NC(=O)C1(O)CCSC1)c1ncc(-c2cc(Cl)cc(F)c2-c2nnn(C)n2)cc1F (some centres not stated)" recorded_value=2.9
compound=C[C@@H](NC(=O)C1(O)CCC(F)(F)CC1)c1ncc(-c2cc(Cl)cc(F)c2-c2nnn(C)n2)cc1F recorded_value=2

(1) C[C@@H](NC(=O)C1(O)CC[S+]([O-])C1)c1ncc(-c2cc(Cl)cc(F)c2-c2nnn(C)n2)cc1F (some centres not stated)
(2) C[C@@H](NC(=O)C1(O)CCS(=O)(=O)C1)c1ncc(-c2cc(Cl)cc(F)c2-c2nnn(C)n2)cc1F (some centres not stated)
(3) C[C@@H](NC(=O)C1(O)CCCC1)c1ncc(-c2cc(Cl)cc(F)c2-c2nnn(C)n2)cc1F
(4) C[C@@H](NC(=O)C1(O)CCOCC1)c1ncc(-c2cc(Cl)cc(F)c2-c2nnn(C)n2)cc1F
Q: # rank_down: sort by Ratio, max first Rank them, then answer with their labels in that order.
A: 2, 1, 4, 3
(2: 29, 1: 14.3, 4: 8.2, 3: 2.1)
